Data origin: patent US9730944B2

test: Cytotoxicity in G-luc replicon cells, Promega CellTiter-Glo cell viability assay; details: G-luc (GLuc-1) HCV genotype 1a H-77 replicon cells
Would you mind telling me the reported CC50 at 72 h of each entry?

# CC50 at 72 h lookup, item CSc1nc2c(N3CCN(C(=O)COc4ccc(Cl)cc4)CC3)nc(N)nc2n1C
> 50 µM

# CC50 at 72 h lookup, item Nc1nc(N2CCN(C(=O)COc3ccc(Cl)cc3)CC2)c2nc(C3CC3)sc2n1
> 50 µM

# CC50 at 72 h lookup, item Nc1nc(N2CCN(C(=O)COc3ccccc3)CC2)c2nc(-c3ccc(F)cc3)[nH]c2n1
> 50 µM

# CC50 at 72 h lookup, item Nc1nc(N2CCN(C(=O)COc3ccc(Cl)cc3)CC2)c2nc(C3CC3)[nH]c2n1
> 50 µM

# CC50 at 72 h lookup, item Cc1nc2c(N3CCN(C(=O)COc4ccc(Cl)cc4)CC3)nc(N)nc2[nH]1
> 50 µM

====

experiment: Cytotoxicity in HCV-1a replicon cells, Promega CellTiter-Glo cell viability assay
Rule: CC50 at 72 h below 20 µM gives MET. Equal to or above 20 µM gives NOT MET.

Determine if Cc1cccc(NC(=O)N2CCN(c3nc(N)nc4sc(-c5ccccc5)cc34)CC2)c1 shows CC50 at 72 h strictly lower than 20 µM.
NOT MET

Determine if Cc1cccc(NC(=O)N2CCCN(c3nc(N)nc4[nH]c(-c5ccc(F)cc5)nc34)CC2)c1 shows CC50 at 72 h strictly lower than 20 µM.
NOT MET

Determine if CCCSc1nc2c(N3CCN(C(=O)COc4ccc(Cl)cc4)CC3)nc(N)nc2[nH]1 shows CC50 at 72 h strictly lower than 20 µM.
NOT MET

Determine if Nc1nc(N2CCN(C(=O)COc3ccc(Cl)cc3)CC2)c2nc(C3CCCCC3)sc2n1 shows CC50 at 72 h strictly lower than 20 µM.
MET

Determine if Nc1nc(N2CCN(C(=O)COc3ccc(Cl)cc3)CC2)c2nc(-c3ccc(OC(F)(F)F)cc3)[nH]c2n1 shows CC50 at 72 h strictly lower than 20 µM.
MET

Determine if COCc1nc2c(N3CCN(C(=O)COc4ccc(Cl)cc4)CC3)nc(N)nc2o1 shows CC50 at 72 h strictly lower than 20 µM.
NOT MET

Determine if Nc1nc(N2CCN(C(=O)COc3ccc(Cl)cc3)CC2)c2nc(C3CCCCC3)oc2n1 shows CC50 at 72 h strictly lower than 20 µM.
NOT MET

Determine if Nc1nc(N2CCN(C(=O)COc3ccc(Cl)cc3)CC2)c2nc(C3CC3)[nH]c2n1 shows CC50 at 72 h strictly lower than 20 µM.
NOT MET

Determine if Nc1nc(N2CCN(C(=O)COc3ccc(Cl)cc3)CC2)c2nc(SCCc3ccccc3)[nH]c2n1 shows CC50 at 72 h strictly lower than 20 µM.
MET

Determine if Nc1nc(N2CCN(CC(=O)NCCc3ccccc3)CC2)c2nc(CCc3ccc(F)cc3)sc2n1 shows CC50 at 72 h strictly lower than 20 µM.
MET

Determine if Nc1nc(N2CCN(C(=O)COc3ccc(Cl)cc3)CC2)c2nc(CCc3cccs3)sc2n1 shows CC50 at 72 h strictly lower than 20 µM.
NOT MET

Determine if Nc1nc(N2CCN(C(=O)COc3ccc(Cl)cc3)CC2)c2nc(C3CC3)sc2n1 shows CC50 at 72 h strictly lower than 20 µM.
NOT MET

Determine if Nc1nc(N2CCCN(C(=O)COc3ccc(Cl)cc3)CC2)c2nc(-c3ccc(F)cc3)[nH]c2n1 shows CC50 at 72 h strictly lower than 20 µM.
NOT MET

Determine if Nc1nc(N2CCN(C(=O)COc3ccccc3)CC2)c2cc(-c3ccccc3)sc2n1 shows CC50 at 72 h strictly lower than 20 µM.
NOT MET

Determine if CSc1nc2c(N3CCN(C(=O)COc4ccc(Cl)cc4)CC3)nc(N)nc2n1C shows CC50 at 72 h strictly lower than 20 µM.
NOT MET

Determine if CC(c1ccc(Cl)cc1)c1nc2c(N3CCN(C(=O)COc4ccc(Cl)cc4)CC3)nc(N)nc2s1 (stereo not shown) shows CC50 at 72 h strictly lower than 20 µM.
NOT MET

====

system: poliovirus (PV type 2); assay: microbe, parasite or virus in culture; assay type: cell-based; conditions: Enterovirus C, HeLa, read-out: PV-2 EC50
Recorded endpoint: EC50 (µg/mL)
Use µg/mL as the unit, but write only the number.

# EC50 lookup, item CC(C)CN1CCN(c2nc(N)nc3oc(-c4ccc(F)cc4)nc23)CC1
1.17

# EC50 lookup, item Nc1nc(N2CCN(C(=O)COc3ccc(Br)cc3)CC2)c2nc(CCc3ccc(F)cc3)sc2n1
0.38

# EC50 lookup, item Cc1cccc(NC(=O)N2CCN(c3nc(N)nc4sc(-c5ccc(F)cc5)cc34)CC2)c1
0.41

# EC50 lookup, item Nc1nc(N2CCN(C(=O)COc3ccc(Cl)cc3)CC2)c2nc(CCc3ccc(F)cc3)oc2n1
15.6

# EC50 lookup, item Nc1nc(N2CCN(C(=O)COc3ccc(Cl)cc3)CC2)c2nc(-c3ccc(F)cc3)[nH]c2n1
16.7

====

experiment: in vitro; conditions: African green monkey
Recorded endpoint: CC50 (µg/mL)
Use µg/mL as the unit, but write only the number.

# CC50 lookup, item Nc1nc(N2CCN(C(=O)COc3ccc(Cl)cc3)CC2)c2nc(-c3ccc(F)cc3)sc2n1
28.7

====

system: hRV-39; experiment: Rhinovirus type 39 antiviral assay in Hela Rh cells, MTS readout; type: cell-based, Human rhinovirus; conditions: Human rhinovirus sp., HRV39, HeLa Rh, Hela Rh cells; read-out: hRV-39 EC50
Would you mind telling me the reported EC50 of each entry?

# EC50 lookup, item Nc1nc(N2CCN(C(=O)COc3ccc(Br)cc3)CC2)c2nc(-c3ccc(F)cc3)sc2n1 [Example 235]
< 0.02 µg/mL

# EC50 lookup, item COc1ccc(OCC(=O)N2CCN(c3nc(N)nc4sc(CCc5ccc(Br)cc5)nc34)CC2)cc1 [Example 298]
0.45 µg/mL

# EC50 lookup, item COc1ccc(OCC(=O)N2CCN(c3nc(N)nc4sc(CCc5ccc(OC)c(OC)c5)nc34)CC2)cc1 [Example 257]
2.26 µg/mL

# EC50 lookup, item CC(C)(C)OC(=O)N[C@@H]1CCN(c2nc(N)nc3sc(-c4ccc(F)cc4)cc23)C1 [Example 338]
0.38 µg/mL

====

test: Cytotoxicity reported with the coxsackievirus (CVA9) assay; conditions: African green monkey
Recorded endpoint: CC50 (µg/mL)
Use µg/mL as the unit, but write only the number.

# CC50 lookup, item Nc1nc(N2CCN(C(=O)COc3ccc(Cl)cc3)CC2)c2nc(-c3ccc(F)cc3)sc2n1
25.7

====

tested on: hRV-41; assay: Rhinovirus type 41 antiviral assay in Hela Rh cells, MTS readout; assay type: cell-based, Human rhinovirus; settings: Human rhinovirus sp., HRV41, HeLa Rh, Hela Rh cells; read-out: hRV-41 EC50
Would you mind telling me the reported EC50 of each entry?
Use µg/mL as the unit, but write only the number.

# EC50 lookup, item COc1cccc(CCc2nc3c(N4CCN(C(=O)COc5ccc(Br)cc5)CC4)nc(N)nc3s2)c1
13

# EC50 lookup, item CC(C)(C)OC(=O)N[C@@H]1CCN(c2nc(N)nc3sc(-c4ccc(F)cc4)cc23)C1
27.4

# EC50 lookup, item COc1ccc(OCC(=O)N2CCN(c3nc(N)nc4sc(CCc5ccc(Br)cc5)nc34)CC2)cc1
10.4

# EC50 lookup, item COc1ccc(OCC(=O)N2CCN(c3nc(N)nc4sc(-c5ccc(C)cc5)nc34)CC2)cc1
0.43

# EC50 lookup, item COc1ccc(OCC(=O)N2CCN(c3nc(N)nc4sc(Cc5ccc(F)cc5)nc34)CC2)cc1
0.58

# EC50 lookup, item COc1ccc(OCC(=O)N2CCN(c3nc(N)nc4sc(CCc5ccc(OC)c(OC)c5)nc34)CC2)cc1
31.1

====

Would you mind telling me the reported CC50 at 72 h of each entry?
assay: Cytotoxicity in HCV-1a replicon cells, Promega CellTiter-Glo cell viability assay
Use µM as the unit, but write only the number.

# CC50 at 72 h lookup, item Cn1c(-c2ccc(F)cc2)nc2c(N3CCN(C(=O)COc4ccc(Cl)cc4)CC3)nc(N)nc21
15.1

# CC50 at 72 h lookup, item Cc1cccc(NC(=O)N2CCN(c3nc(N)nc4sc(CCc5ccc(F)cc5)nc34)CC2)c1
15.8

# CC50 at 72 h lookup, item Nc1nc(N2CCN(C(=O)COc3ccc(Cl)cc3)CC2)c2nc(CCc3ccccc3)oc2n1
40.5

# CC50 at 72 h lookup, item Nc1nc(N2CCN(C(=O)CCc3ccccc3)CC2)c2nc(-c3ccc(F)cc3)[nH]c2n1
6.1
